Hello, the source for this data is ChEMBL document CHEMBL5143723, in case you need it.

test: AUC in non-human primates at 1 mg/kg, po; type: ADME, organism-based; set-up: dose 1 mg/kg, route po; settings: in vivo
assay metric: AUC (ng·h/mL)
Write the answer as a number in ng·h/mL, unit excluded.

## Input Name the recorded AUC of the compound listed here: `COCCO[C@H]1CC[C@H](NC(=O)c2cc(-c3cncs3)nc3[nH]ccc23)CC1`
## Output 1740

* * *

target: ADP-ribosyl cyclase/cyclic ADP-ribose hydrolase 1 (Rattus norvegicus, UniProt Q64244); experiment: Inhibition of rat CD38 using N6-etheno-NAD as substrate by fluorescence microplate reader assay
Sequence (Q64244 whole entry): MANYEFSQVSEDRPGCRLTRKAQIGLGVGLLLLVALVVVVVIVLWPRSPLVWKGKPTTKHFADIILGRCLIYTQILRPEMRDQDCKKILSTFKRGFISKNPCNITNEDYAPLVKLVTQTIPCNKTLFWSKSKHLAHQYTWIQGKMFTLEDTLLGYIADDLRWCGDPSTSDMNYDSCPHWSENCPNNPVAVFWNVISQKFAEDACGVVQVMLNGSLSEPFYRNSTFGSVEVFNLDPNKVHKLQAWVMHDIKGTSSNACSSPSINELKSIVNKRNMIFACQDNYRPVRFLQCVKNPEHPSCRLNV
assay metric: pIC50
Quick note: pIC50 values are minus log10 of concentrations in mol/L.

## Input Name the recorded pIC50 of the compound listed here: `COCCO[C@H]1CC[C@H](NC(=O)c2cc(-c3cncs3)nc3[nH]ccc23)CC1`
## Output 7.15
